Data credit: paper PMC3814616

# subject of test: TAOK2 (Homo sapiens, UniProt Q9UL54)
# Construct: purchased KINOMEscan (DiscoveRx), San Diego, CA
# Sequence (Q9UL54 1-1235): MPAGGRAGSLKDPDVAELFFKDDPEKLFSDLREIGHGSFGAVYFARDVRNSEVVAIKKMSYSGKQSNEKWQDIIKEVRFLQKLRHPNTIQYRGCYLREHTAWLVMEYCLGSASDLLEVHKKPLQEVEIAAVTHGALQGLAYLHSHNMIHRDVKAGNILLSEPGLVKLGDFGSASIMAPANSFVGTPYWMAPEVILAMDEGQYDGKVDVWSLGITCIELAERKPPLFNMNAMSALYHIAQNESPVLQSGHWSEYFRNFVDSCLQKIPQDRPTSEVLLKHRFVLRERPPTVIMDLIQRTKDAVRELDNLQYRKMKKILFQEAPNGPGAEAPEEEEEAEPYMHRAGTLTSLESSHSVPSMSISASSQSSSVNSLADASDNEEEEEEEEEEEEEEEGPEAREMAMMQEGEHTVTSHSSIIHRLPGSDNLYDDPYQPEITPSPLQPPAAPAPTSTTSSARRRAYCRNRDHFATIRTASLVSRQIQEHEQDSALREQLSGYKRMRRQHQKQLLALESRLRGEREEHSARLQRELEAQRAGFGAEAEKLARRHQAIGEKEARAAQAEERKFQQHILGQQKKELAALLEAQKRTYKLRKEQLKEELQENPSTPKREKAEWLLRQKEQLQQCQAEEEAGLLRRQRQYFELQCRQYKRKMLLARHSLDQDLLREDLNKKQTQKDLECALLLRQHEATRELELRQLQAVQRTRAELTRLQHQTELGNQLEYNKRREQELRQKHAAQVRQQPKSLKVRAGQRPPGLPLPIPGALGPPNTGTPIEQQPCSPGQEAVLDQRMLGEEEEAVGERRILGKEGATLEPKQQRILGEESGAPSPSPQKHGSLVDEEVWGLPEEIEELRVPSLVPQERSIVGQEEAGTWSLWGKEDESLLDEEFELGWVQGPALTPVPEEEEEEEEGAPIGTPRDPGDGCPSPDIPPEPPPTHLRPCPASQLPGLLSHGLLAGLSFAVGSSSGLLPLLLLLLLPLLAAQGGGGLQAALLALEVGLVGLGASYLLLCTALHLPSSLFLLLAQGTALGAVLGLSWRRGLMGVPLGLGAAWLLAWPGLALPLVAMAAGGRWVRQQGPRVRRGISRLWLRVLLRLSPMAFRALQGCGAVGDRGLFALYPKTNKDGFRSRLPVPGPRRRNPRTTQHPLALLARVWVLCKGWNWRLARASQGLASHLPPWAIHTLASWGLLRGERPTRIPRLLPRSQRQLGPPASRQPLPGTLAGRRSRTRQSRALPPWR
# experiment description: Quantitative competitive binding assay (KINOMEscan)
# conditions used: estimated Kd, averaged pointwise estimates, transformed Hill equation; read-out: Calculated estimate of IC50
property: pIC50
Please report pIC50 as the negative decimal logarithm of the molar concentration, giving only the number.

Query CCCS(=O)(=O)Nc1ccc(F)c(C(=O)c2c[nH]c3ncc(-c4ccc(Cl)cc4)cc23)c1F [vemurafenib] yields pIC50 of 4.93

* * *

# subject of test: MEK6 (MAP2K6) (Homo sapiens)
# Construct: purchased KINOMEscan (DiscoveRx), San Diego, CA
# Sequence (P52564 whole entry): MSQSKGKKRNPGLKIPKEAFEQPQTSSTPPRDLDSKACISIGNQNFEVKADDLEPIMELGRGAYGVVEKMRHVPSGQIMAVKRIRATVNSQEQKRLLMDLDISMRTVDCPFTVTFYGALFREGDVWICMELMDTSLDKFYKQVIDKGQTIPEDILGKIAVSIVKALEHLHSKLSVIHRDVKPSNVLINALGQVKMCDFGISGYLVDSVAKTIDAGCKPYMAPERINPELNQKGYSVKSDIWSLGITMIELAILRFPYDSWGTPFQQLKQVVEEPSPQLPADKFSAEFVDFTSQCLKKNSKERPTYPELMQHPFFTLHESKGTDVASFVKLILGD
# experiment description: Quantitative competitive binding assay (KINOMEscan)
# conditions used: estimated Kd, averaged pointwise estimates, transformed Hill equation; read-out: Calculated estimate of IC50
property: IC50
Answer with the value and then the unit.

Form: item CCCS(=O)(=O)Nc1ccc(F)c(C(=O)c2c[nH]c3ncc(-c4ccc(Cl)cc4)cc23)c1F [vemurafenib] ; test system MEK6 (MAP2K6) (Homo sapiens); IC50: 4.08 µM

* * *

# subject of test: MLK1 (MAP3K9) (Homo sapiens, UniProt P80192)
# Construct: purchased KINOMEscan (DiscoveRx), San Diego, CA
# Sequence (P80192 whole entry): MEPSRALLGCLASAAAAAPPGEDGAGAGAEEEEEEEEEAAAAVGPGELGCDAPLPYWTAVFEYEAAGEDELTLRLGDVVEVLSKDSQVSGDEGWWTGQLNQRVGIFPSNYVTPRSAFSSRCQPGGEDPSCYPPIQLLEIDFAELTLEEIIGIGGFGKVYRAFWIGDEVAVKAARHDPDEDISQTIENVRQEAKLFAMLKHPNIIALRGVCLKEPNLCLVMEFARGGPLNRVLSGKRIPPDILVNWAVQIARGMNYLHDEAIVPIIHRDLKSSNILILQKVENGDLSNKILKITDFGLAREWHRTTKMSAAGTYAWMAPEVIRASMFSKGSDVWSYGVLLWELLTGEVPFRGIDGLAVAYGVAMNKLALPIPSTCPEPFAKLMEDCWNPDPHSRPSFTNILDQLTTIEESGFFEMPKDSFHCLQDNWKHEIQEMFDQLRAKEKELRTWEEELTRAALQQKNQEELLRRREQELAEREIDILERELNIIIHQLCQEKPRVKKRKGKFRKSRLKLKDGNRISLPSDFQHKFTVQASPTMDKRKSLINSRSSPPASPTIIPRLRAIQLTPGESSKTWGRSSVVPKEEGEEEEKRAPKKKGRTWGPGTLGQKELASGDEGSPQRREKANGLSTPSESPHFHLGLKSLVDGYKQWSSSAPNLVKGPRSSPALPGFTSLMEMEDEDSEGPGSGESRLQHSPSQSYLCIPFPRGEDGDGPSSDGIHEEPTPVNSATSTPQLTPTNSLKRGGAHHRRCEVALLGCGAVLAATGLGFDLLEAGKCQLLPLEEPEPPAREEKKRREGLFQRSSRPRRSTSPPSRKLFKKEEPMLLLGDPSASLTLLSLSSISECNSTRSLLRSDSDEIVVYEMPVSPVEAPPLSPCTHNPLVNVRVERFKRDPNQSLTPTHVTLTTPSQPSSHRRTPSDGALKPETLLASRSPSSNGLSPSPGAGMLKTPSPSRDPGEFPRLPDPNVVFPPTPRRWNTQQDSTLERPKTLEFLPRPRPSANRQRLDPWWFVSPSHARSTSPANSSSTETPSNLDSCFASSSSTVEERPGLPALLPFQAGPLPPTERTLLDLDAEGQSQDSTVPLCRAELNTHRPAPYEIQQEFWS
# experiment description: Quantitative competitive binding assay (KINOMEscan)
# conditions used: estimated Kd, averaged pointwise estimates, transformed Hill equation; read-out: Calculated estimate of IC50
property: IC50 (µM)
Give your result in µM as a bare value.

The molecule identified as CCCS(=O)(=O)Nc1ccc(F)c(C(=O)c2c[nH]c3ncc(-c4ccc(Cl)cc4)cc23)c1F [vemurafenib] registered its IC50 at 14

* * *

# subject of test: TAOK1 (Homo sapiens)
# Construct: purchased KINOMEscan (DiscoveRx), San Diego, CA
# Sequence (Q7L7X3 1-1001): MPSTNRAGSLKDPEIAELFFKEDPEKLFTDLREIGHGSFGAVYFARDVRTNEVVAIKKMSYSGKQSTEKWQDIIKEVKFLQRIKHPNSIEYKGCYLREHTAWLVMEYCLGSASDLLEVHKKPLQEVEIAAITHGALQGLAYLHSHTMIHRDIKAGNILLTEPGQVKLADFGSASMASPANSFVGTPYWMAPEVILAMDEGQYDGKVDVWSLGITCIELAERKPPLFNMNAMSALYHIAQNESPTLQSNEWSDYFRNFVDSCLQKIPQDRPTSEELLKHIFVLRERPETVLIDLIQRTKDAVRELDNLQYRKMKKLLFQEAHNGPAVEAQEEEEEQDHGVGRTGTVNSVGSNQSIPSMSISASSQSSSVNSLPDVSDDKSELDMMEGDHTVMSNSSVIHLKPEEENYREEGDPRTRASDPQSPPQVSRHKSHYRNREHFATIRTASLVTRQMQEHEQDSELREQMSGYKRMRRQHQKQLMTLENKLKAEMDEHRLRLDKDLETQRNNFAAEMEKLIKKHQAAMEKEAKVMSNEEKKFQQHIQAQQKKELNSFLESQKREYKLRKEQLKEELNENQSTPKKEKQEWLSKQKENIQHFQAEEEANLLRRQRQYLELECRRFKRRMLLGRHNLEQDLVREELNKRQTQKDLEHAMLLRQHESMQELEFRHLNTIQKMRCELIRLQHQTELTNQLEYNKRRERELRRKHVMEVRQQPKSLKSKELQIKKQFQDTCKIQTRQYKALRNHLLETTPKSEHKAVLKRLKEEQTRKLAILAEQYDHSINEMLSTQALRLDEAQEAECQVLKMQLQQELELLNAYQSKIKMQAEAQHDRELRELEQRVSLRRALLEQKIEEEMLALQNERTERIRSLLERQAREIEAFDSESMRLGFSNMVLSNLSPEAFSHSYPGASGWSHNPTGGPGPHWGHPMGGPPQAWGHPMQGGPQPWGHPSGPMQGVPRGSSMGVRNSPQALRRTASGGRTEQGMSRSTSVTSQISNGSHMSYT
# experiment description: Quantitative competitive binding assay (KINOMEscan)
# conditions used: estimated Kd, averaged pointwise estimates, transformed Hill equation; read-out: Calculated estimate of IC50
property: pIC50
Scale: negative log10 of molar concentration, which is what pIC50 denotes.

pIC50 measured on CCCS(=O)(=O)Nc1ccc(F)c(C(=O)c2c[nH]c3ncc(Cl)cc23)c1F = 5.12

* * *

# subject of test: MAP4K4 (Homo sapiens)
# Construct: purchased KINOMEscan (DiscoveRx), San Diego, CA
# Sequence (O95819 whole entry): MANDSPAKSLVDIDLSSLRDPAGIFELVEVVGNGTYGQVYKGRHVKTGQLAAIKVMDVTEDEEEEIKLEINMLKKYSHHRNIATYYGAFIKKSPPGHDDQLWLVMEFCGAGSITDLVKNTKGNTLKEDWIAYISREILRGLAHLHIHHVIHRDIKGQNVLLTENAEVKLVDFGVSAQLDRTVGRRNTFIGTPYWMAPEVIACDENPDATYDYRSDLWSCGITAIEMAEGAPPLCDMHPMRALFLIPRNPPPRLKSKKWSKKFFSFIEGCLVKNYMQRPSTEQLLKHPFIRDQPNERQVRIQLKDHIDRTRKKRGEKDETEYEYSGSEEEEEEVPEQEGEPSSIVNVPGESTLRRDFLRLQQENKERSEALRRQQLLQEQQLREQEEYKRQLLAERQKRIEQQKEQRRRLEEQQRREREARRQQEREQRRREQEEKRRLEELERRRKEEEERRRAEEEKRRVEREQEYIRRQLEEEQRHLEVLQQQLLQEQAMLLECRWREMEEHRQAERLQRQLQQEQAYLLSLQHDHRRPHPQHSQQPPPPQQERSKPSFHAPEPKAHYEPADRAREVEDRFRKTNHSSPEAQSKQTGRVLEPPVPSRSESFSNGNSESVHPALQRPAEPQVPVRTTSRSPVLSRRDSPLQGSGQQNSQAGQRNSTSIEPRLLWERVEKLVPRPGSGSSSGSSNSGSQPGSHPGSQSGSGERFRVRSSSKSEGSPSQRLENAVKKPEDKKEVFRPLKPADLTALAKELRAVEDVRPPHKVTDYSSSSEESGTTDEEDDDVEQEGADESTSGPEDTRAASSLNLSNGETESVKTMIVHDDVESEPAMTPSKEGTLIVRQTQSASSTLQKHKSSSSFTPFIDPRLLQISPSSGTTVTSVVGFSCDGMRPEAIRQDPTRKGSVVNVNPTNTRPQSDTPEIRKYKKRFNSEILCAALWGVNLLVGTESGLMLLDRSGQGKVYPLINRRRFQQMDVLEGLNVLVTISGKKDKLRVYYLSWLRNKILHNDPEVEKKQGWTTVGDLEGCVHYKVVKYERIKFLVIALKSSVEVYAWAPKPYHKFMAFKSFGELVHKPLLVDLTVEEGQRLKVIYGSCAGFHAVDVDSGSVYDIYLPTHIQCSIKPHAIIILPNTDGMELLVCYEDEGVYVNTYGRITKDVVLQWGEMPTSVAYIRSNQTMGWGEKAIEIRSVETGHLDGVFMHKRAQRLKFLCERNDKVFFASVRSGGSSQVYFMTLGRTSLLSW
# experiment description: Quantitative competitive binding assay (KINOMEscan)
# conditions used: estimated Kd, averaged pointwise estimates, transformed Hill equation; read-out: Calculated estimate of IC50
property: pIC50
The read-out pIC50 is expressed as -log10 of concentration in moles per litre.

The recorded pIC50 for CCCS(=O)(=O)Nc1ccc(F)c(C(=O)c2c[nH]c3ncc(-c4ccc(Cl)cc4)cc23)c1F is 5.55

* * *

# subject of test: BLK (Homo sapiens, UniProt P51451)
# Construct: purchased KINOMEscan (DiscoveRx), San Diego, CA
# Sequence (P51451 whole entry): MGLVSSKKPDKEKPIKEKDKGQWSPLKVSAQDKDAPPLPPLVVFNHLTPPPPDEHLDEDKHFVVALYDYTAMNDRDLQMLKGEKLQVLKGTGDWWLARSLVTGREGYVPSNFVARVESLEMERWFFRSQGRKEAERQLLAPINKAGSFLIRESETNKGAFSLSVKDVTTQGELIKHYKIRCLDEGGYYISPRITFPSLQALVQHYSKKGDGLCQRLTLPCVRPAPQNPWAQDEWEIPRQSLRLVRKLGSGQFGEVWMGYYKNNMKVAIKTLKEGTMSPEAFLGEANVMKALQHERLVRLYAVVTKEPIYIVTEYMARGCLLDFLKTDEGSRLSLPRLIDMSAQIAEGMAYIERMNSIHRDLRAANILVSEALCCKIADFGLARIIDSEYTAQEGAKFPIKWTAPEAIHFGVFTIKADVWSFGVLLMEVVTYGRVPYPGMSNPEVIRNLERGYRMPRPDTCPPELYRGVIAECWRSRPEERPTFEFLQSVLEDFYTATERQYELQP
# experiment description: Quantitative competitive binding assay (KINOMEscan)
# conditions used: estimated Kd, averaged pointwise estimates, transformed Hill equation; read-out: Calculated estimate of IC50
property: IC50
Value and unit, in that order.

{"columns": ["compound", "IC50"],
 "data": [
  ["CCCS(=O)(=O)Nc1ccc(F)c(C(=O)c2c[nH]c3ncc(-c4ccc(Cl)cc4)cc23)c1F [vemurafenib]", "518 nM"]
]}

Note to self: IC50 recorded for CCCS(=O)(=O)Nc1ccc(F)c(C(=O)c2c[nH]c3ncc(Cl)cc23)c1F [PLX4720] was 447 nM

* * *

# subject of test: MST1 (STK4) (Homo sapiens, UniProt Q13043)
# Construct: purchased KINOMEscan (DiscoveRx), San Diego, CA
# Sequence (Q13043 whole entry): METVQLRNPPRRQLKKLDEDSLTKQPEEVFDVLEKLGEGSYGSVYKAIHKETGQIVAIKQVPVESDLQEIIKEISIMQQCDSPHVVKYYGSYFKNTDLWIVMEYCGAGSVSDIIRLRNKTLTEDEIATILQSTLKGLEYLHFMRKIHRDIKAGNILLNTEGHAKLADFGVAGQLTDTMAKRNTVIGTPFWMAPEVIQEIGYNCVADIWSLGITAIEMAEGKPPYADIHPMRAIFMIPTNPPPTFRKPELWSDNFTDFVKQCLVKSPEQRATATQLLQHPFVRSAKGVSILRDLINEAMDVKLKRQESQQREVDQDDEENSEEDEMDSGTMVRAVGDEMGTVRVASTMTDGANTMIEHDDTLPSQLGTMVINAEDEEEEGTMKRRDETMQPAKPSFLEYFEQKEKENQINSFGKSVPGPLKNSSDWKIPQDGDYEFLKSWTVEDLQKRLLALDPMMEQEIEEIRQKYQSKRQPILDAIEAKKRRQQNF
# experiment description: Quantitative competitive binding assay (KINOMEscan)
# conditions used: estimated Kd, averaged pointwise estimates, transformed Hill equation; read-out: Calculated estimate of IC50
property: IC50
Could you kindly put the unit after your number?

Documented IC50 of CCCS(=O)(=O)Nc1ccc(F)c(C(=O)c2c[nH]c3ncc(Cl)cc23)c1F [PLX4720] : 6.71 µM

* * *

# subject of test: human full-length ZAK (Homo sapiens)
# Construct: In vitro kinase assays were performed using human full-length ZAK; purchased Reaction Biology
# Sequence (Q9NYL2 1-455 isoform Q9NYL2-2): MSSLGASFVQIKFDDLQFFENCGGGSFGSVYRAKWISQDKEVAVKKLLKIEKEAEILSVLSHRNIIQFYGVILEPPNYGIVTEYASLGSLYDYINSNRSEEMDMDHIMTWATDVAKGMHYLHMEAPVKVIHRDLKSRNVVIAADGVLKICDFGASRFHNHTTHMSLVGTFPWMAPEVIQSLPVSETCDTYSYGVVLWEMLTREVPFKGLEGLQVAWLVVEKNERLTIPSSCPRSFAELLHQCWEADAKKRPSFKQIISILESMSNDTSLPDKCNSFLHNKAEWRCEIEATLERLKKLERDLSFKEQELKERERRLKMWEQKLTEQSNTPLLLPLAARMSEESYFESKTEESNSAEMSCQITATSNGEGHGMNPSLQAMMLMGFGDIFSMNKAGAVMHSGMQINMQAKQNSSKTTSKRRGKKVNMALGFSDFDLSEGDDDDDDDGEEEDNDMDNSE
# experiment description: In vitro kinase assay (Reaction Biology)
# Assay type: biochemical
# conditions used: MBP substrate, ATP 2.5 μM; read-out: biochemical IC50
property: pIC50
To interpret pIC50, take it as minus log10 of a concentration measured in moles per litre.

Recorded result, CC(C)(C)c1nc(-c2cccc(NS(=O)(=O)c3c(F)cccc3F)c2F)c(-c2ccnc(N)n2)s1 , pIC50: 7.54
